TEST_METHOD_NOTES: Acute toxicity in C57Bl/6 mice
Type: in vivo
ASSAY_CONDITIONS: mouse, in vivo, ip; C57Bl/6 mice, intraperitoneal
VALUE_KIND: LD50 (mg/kg)
Please give a number only; it is taken to be in mg/kg.

QUERY: Request the reported LD50 associated with `O=C1C(NC2CCCCCCC2)=CC(=O)c2ncccc21`
RESULT: 564
